assay: growth suppression of yeast trafficking mutant, preliminary HTS, modulators of trafficking downstream of Golgi apparatus project, 1536-format plate, OD 615 nm (AID 637); conditions: yeast transport mutant growth, absorbance 615 nm, 18 h; stronger effect = higher value
parameter.measured: inhibition (%)
Unit % implied. Number only.

Solved entries (count: 6):
query: Any idea what its inhibition is? The compound is CNC(=O)c1ccc(N(Cc2ccccc2C)S(C)(=O)=O)cc1
result: -2.95

query: Any idea what its inhibition is? The compound is CCOC(=O)c1cc2sccc2n1Cc1ccccc1
result: 1.8

query: Any idea what its inhibition is? The compound is CCCn1c(NCc2ccc3c(c2)OCO3)nc2ccccc21
result: -1.13

query: Any idea what its inhibition is? The compound is Cc1ccc2c(c1)CCCN2C(=O)Nc1ccc2c(c1)OCO2
result: 6.89

query: Any idea what its inhibition is? The compound is CC1(C)Cc2c(c(N3CCOCC3)nc3sc(C#N)c(N)c23)CS1
result: -8.67

query: Any idea what its inhibition is? The compound is CC(C)(CO)NC(=O)CCCOc1ccc(Cl)cc1Cl
result: 0.17

Continuing:
query: Any idea what its inhibition is? The compound is Cc1onc(-c2ccccc2Cl)c1C(=O)NCc1cccnc1
result: 6.13

query: Any idea what its inhibition is? The compound is Cn1c2ccc(F)cc2c2ncn(CCN3CCOCC3)c(=O)c21
result: -3.02

query: Any idea what its inhibition is? The compound is COc1ccc(NC(=O)CCc2nc(-c3ccccc3F)no2)cc1
result: -0.66

query: Any idea what its inhibition is? The compound is CCCCC(CC)CNC(=O)C1CCCN(S(=O)(=O)c2cnc[nH]2)C1 (stereo unspecified)
result: 2.79

query: Any idea what its inhibition is? The compound is Cc1nn(Cc2ccc(C(=O)NC3CCCCC3)o2)c(C)c1Br
result: -5.17

query: Any idea what its inhibition is? The compound is CC(C)C1Cc2c(C#N)c(N)sc(=S)c2CO1 (stereo unspecified)
result: -2.13

query: Any idea what its inhibition is? The compound is CC(C)C(=O)Nc1nnc(CCc2nnc(NC(=O)C(C)C)s2)s1
result: 0.16

query: Any idea what its inhibition is? The compound is CCOc1ccc(-c2nnn(CC(=O)N3CCN(c4ccc(F)cc4)CC3)n2)cc1OCC
result: -0.33

query: Any idea what its inhibition is? The compound is CCSc1nnc2c(n1)OC=Nc1ccc(Br)cc1-2
result: -4.67

query: Any idea what its inhibition is? The compound is Cc1ccc(NC(=O)CSc2nnc(CNC(=O)c3c(F)cccc3Cl)o2)cc1
result: -6.83

query: Any idea what its inhibition is? The compound is O=C(NCc1ccccc1)C1CCN(S(=O)(=O)N2CCCCCC2)CC1
result: -6.23

query: Any idea what its inhibition is? The compound is Cn1nc(C(=O)NC2CCCCCC2)ccc1=O
result: -0.79

query: Any idea what its inhibition is? The compound is Cc1ccc(-c2noc(C3CCCN(C(=O)c4ccccc4)C3)n2)o1 (stereo unspecified)
result: 0.33

====

assay: reversal of MRP1-mediated doxorubicin resistance, pilot screen, H69AR cells, doxorubicin co-treatment (AID 601); conditions: H69AR cells, CellTiter-Glo, 72 h; compound alone cytotoxicity; at 10 µM
Measured viability values are reported for all entries that follow.
Unit % implied. Number only.

Solved entries (count: 8):
query: Any idea what its viability is? The compound is CCc1ccccc1NC(=O)C(C#N)Cc1cccnc1 (stereo not drawn)
result: 94.6

query: Any idea what its viability is? The compound is CCCCNS(=O)(=O)c1ccc(OC)c2ncccc12
result: 90

query: Any idea what its viability is? The compound is CCC(NC(=O)Nc1cc(OC)c(OC)c(OC)c1)(C(F)(F)F)C(F)(F)F
result: 93

query: Any idea what its viability is? The compound is Cc1ccc(/C=c2\sc3nc(-c4ccccc4Br)nn3c2=O)o1
result: 95.5

query: Any idea what its viability is? The compound is CCOC(=O)N1CCN(C(=O)CN2C(=O)COc3ccc(C)cc32)CC1
result: 94.2

query: Any idea what its viability is? The compound is CN(C)CCCN1C(=O)C(=O)/C(=C(/O)c2ccncc2)C1c1cccc(Br)c1 (stereo not drawn)
result: 94.5

query: Any idea what its viability is? The compound is CCCCCCNC(=O)Cc1c(O)c2ccccc2[nH]c1=O
result: 94.9

query: Any idea what its viability is? The compound is CCCCn1c(=O)[nH]c(=O)c2c1nc(-c1ccncc1)n2CCOC
result: 94.2

Continuing:
query: Any idea what its viability is? The compound is COc1ccc(-c2nn3c(-c4ccncc4)nnc3s2)cc1OC
result: 99.2

query: Any idea what its viability is? The compound is COc1ccc(C2/C(=C(/O)c3ccccc3)C(=O)C(=O)N2C)cc1 (stereo not drawn)
result: 101

query: Any idea what its viability is? The compound is COC(=O)c1[nH]c2ccccc2c1NC(=O)CN1CCC(C(N)=O)(N2CCCCC2)CC1
result: 93.2

query: Any idea what its viability is? The compound is O=C1NC(Nc2ccccn2)(C(F)(F)F)C(=O)N1c1ccc(F)cc1 (stereo not drawn)
result: 103

query: Any idea what its viability is? The compound is COc1ccc(OC)c(C2C(C#N)=C(N)Oc3cc(C)[nH]c(=O)c32)c1 (stereo not drawn)
result: 99.5

query: Any idea what its viability is? The compound is COc1ccc(-c2nnc(SCCC(=O)O)n2-c2ccccc2)cc1
result: 95.2

query: Any idea what its viability is? The compound is CCOC(=O)Cn1c(S(=O)(=O)Cc2ccccc2)nc2ccccc21
result: 91.5

query: Any idea what its viability is? The compound is CC(=O)c1c(C)oc2ccc(NS(=O)(=O)c3ccc(O)c(C(=O)O)c3)cc12
result: 94

query: Any idea what its viability is? The compound is CCOc1ccc(Cc2nn[nH]n2)cc1
result: 101

query: Any idea what its viability is? The compound is CC(C)(C)Cc1nc(-c2ccccn2)no1
result: 100

query: Any idea what its viability is? The compound is O=C(c1ccccc1F)N1CCN(Cc2cccc(Cl)c2)CC1
result: 100

query: Any idea what its viability is? The compound is CCOC(=O)Cn1nnnc1C(C(C)C)N(Cc1cc2c(C)cc(C)cc2[nH]c1=O)C1CCCC1 (stereo not drawn)
result: 88.5

query: Any idea what its viability is? The compound is COC(=O)C1=C(C)C(c2cccs2)NC(=O)N1C (stereo not drawn)
result: 95.3

query: Any idea what its viability is? The compound is Cc1cc(C)nc(N2CCC(C(=O)NCc3cccc(C(F)(F)F)c3)CC2)n1
result: 91.1

query: Any idea what its viability is? The compound is Cc1ccc(Cn2nnc3c(=O)[nH]c(C4CCN(C(=O)c5cccs5)CC4)nc32)cc1
result: 86
